Could you please report measured Ki for the items listed next?
- ASSAY_TARGET: SSTR2 (Homo sapiens, UniProt P30874)
- Sequence (P30874 whole entry): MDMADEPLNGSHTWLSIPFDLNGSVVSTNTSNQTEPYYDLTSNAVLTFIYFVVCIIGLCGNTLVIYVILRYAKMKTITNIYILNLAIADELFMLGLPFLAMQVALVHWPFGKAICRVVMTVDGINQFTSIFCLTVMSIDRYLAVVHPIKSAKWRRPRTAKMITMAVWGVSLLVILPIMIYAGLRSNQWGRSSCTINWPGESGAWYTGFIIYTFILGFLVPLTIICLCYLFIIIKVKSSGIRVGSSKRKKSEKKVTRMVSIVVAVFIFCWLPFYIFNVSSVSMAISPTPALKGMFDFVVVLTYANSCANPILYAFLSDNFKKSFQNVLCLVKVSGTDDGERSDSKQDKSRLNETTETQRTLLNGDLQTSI
- PROTOCOL_DETAILS: SSTR binding affinity by radioligand binding competition assay ([125I]-Tyr11-Somatostatin, membrane extracts)
- ASSAY_CONTEXT: radioligand competition, [125I]-Tyr11-Somatostatin 0.1 nM, membrane extracts; Ki from IC50 by Cheng Prusoff; read-out: SSTR2 Ki
Numbered stars: 1 amine (or outer) side, 2 acyl side, 3 side chain; on linkers, the order of the positions; unused ones are H or OH. Square brackets hold non-standard residues; d marks the D form. Peptide text beside a SMILES is read from it. * marks the point of attachment. DOTA(Lu)NH(CH2)6NHCOCH2 = O=C(CN1CCN2CCN3CCN(CC1)CC(=O)[O][Lu]([O]C(=O)C2)[O]C(=O)C3)NCCCCCCNC(=O)C*; DOTA(Lu) = O=C1CN2CCN3CCN(CC(=O)*)CCN(CC2)CC(=O)[O][Lu]([O]1)[O]C(=O)C3; Ala(piperidin-4-yl) = O=C([C@H](CC1CCN([*:3])CC1)N[*:1])[*:2]; dTrp(βS-Me) = C[C@@H](c1c[nH]c2ccccc12)[C@@H](N)C(=O)O; X11 = O=C1CN2CCN(CCN(CC(=O)*)CC2)CC(=O)[O][Ga+][O]1; X8 = O=C([C@@H](Cc1n[nH]c2ccccc12)N[*:1])[*:2]; X4 = C[C@@H](c1ccccc1)[C@H](N[*:1])C(=O)[*:2]; 3Pal = N[C@@H](Cc1cccnc1)C(=O)O; Gly(cBu) = N[C@H](C(=O)O)C1CCC1; Lys(Me) = CNCCCC[C@H](N)C(=O)O; NMehCys = CN[C@@H](CCS)C(=O)O; NMeK = CN[C@@H](CCCCN)C(=O)O; X1 = C1NCC1*

Field: example entries. Status: answers known.
COMPOUND	Ki
C[C@@H](O)[C@@H]1NC(=O)[C@H](COC2CNC2)NC(=O)[C@@H](Cc2c[nH]c3ccccc23)NC(=O)[C@H](Cc2ccc(O)cc2)NC(=O)[C@H](CCSCC(=O)NCCCCCCNC(=O)CN2CCN3CCN4CCN(CC2)CC(=O)[O][Lu]([O]C(=O)C3)[O]C(=O)C4)N(C)C(=O)[C@H](Cc2ccccc2)NC1=O [RB-0006013] (cyclo(F[NMehCys](DOTA(Lu)NH(CH2)6NHCOCH2)Y[dW]S(X1)T))	1 to 3.33 nM
C[C@@H](O)[C@@H]1NC(=O)[C@H](CCCCN)NC(=O)[C@@H](Cc2c[nH]c3ccccc23)NC(=O)[C@H](Cc2ccc(O)cc2)NC(=O)[C@H](CC2CCN(C(=O)CCCCCNC(=O)CN3CCN4CCN5CCN(CC3)CC(=O)[O][Lu]([O]C(=O)C4)[O]C(=O)C5)CC2)N(C)C(=O)[C@H](Cc2ccccc2)NC1=O	10 to 33.3 nM

Dear colleague, could you send me Ki for each of the items below? Thanks.
1. C[C@@H](O)[C@@H]1NC(=O)[C@H](CCCCN)NC(=O)[C@@H](Cc2c[nH]c3ccccc23)NC(=O)[C@H](Cc2ccc(O)cc2)NC(=O)[C@H](CNC(=O)[C@H](CC(=O)O)NC(=O)CCCCCNC(=O)CN2CCN3CCN4CCN(CC2)CC(=O)[O][Lu]([O]C(=O)C3)[O]C(=O)C4)N(C)C(=O)[C@H](Cc2ccccc2)NC1=O
2. C[C@@H](O)[C@@H]1NC(=O)[C@H](CC2CCNCC2)NC(=O)[C@@H]([C@@H](C)c2c[nH]c3ccccc23)NC(=O)[C@H](Cc2ccc(O)cc2)NC(=O)[C@H](CCCCNC(=O)CN2CCN3CCN(CC2)CC(=O)[O][Ga+][O]C(=O)C3)N(C)C(=O)[C@H](Cc2ccccc2)NC1=O [RB-0006488] (cyclo(F[NMeK](X11)Y[dTrp(βS-Me)][Ala(piperidin-4-yl)]T))
3. CN1C(=O)[C@H](Cc2ccccc2)NC(=O)[C@H](C2CCC2)NC(=O)[C@H](CCCCN)NC(=O)[C@@H](Cc2c[nH]c3ccccc23)NC(=O)[C@H](Cc2ccc(O)cc2)NC(=O)[C@@H]1CCSCC(=O)NCCCCCCNC(=O)CN1CCN2CCN3CCN(CC1)CC(=O)[O][Lu]([O]C(=O)C2)[O]C(=O)C3 [RB-0004540] (cyclo(F[NMehCys](DOTA(Lu)NH(CH2)6NHCOCH2)Y[dW]K[Gly(cBu)]))
4. CNCCCC[C@@H]1NC(=O)[C@@H](Cc2c[nH]c3ccccc23)NC(=O)[C@H](Cc2ccc(O)cc2)NC(=O)[C@H](CCSCC(=O)NCCCCCCNC(=O)CN2CCN3CCN4CCN(CC2)CC(=O)[O][Lu]([O]C(=O)C3)[O]C(=O)C4)N(C)C(=O)[C@H](Cc2ccccc2)NC(=O)[C@H]([C@@H](C)O)NC1=O [RB-0005799] (cyclo(F[NMehCys](DOTA(Lu)NH(CH2)6NHCOCH2)Y[dW][Lys(Me)]T))
5. C[C@@H](O)[C@@H]1NC(=O)[C@H](CCCCN)NC(=O)[C@@H](Cc2c[nH]c3ccccc23)NC(=O)[C@H](Cc2ccc(O)cc2)NC(=O)[C@H](CCSCC(=O)NCCCCCCNC(=O)CN2CCN3CCN4CCN(CC2)CC(=O)[O][Lu]([O]C(=O)C3)[O]C(=O)C4)N(C)C(=O)[C@H](Cc2cccnc2)NC1=O [RB-0003276] (cyclo([3Pal][NMehCys](DOTA(Lu)NH(CH2)6NHCOCH2)Y[dW]KT))
6. C[C@@H](O)[C@@H]1NC(=O)[C@H](CC2CCNCC2)NC(=O)[C@@H]([C@@H](C)c2c[nH]c3ccccc23)NC(=O)[C@H](Cc2ccc(O)cc2)NC(=O)[C@H](CCCCNC(=O)CCC2C(=O)[O][Ga]3[O]C(=O)CN4CCN(CCN2CC4)CC(=O)[O]3)N(C)C(=O)[C@H](Cc2ccccc2)NC1=O (some centres unmarked) [RB-0006476]
7. C[C@@H](O)[C@@H]1NC(=O)[C@H](CC2CCNCC2)NC(=O)[C@@H](Cc2n[nH]c3ccccc23)NC(=O)[C@H](Cc2ccc(O)cc2)NC(=O)[C@H](CCCCNC(=O)CN2CCN3CCN4CCN(CC2)CC(=O)[O][Lu]([O]C(=O)C3)[O]C(=O)C4)N(C)C(=O)[C@H](Cc2ccccc2)NC1=O [RB-0006553] (cyclo(F[NMeK](DOTA(Lu))Y[X8][Ala(piperidin-4-yl)]T))

1: < 1 nM; 2: 1 to 3.33 nM; 3: < 1 nM; 4: < 1 nM; 5: 3.33 to 10 nM; 6: 3.33 to 10 nM; 7: 10 to 33.3 nM

Dear colleague, could you send me Ki for each of the items below? Thanks.
1. C[C@@H](O)[C@@H]1NC(=O)[C@H](CCCCN)NC(=O)[C@@H](Cc2c[nH]c3ccccc23)NC(=O)[C@H](Cc2ccc(O)cc2)NC(=O)[C@H](CCSCC(=O)NCCCCCCNC(=O)CN2CCN3CCN4CCN(CC2)CC(=O)[O][Lu]([O]C(=O)C3)[O]C(=O)C4)N(C)C(=O)[C@H]([C@@H](C)c2ccccc2)NC1=O [RB-0003278] (cyclo(KT[X4][NMehCys](DOTA(Lu)NH(CH2)6NHCOCH2)Y[dW]))
2. C[C@@H](O)[C@@H]1NC(=O)[C@H](CN2CCNCC2)NC(=O)[C@@H]([C@@H](C)c2c[nH]c3ccccc23)NC(=O)[C@H](Cc2ccc(O)cc2)NC(=O)[C@H](CCCCNC(=O)CC[C@@H]2C(=O)[O][Ga]3[O]C(=O)CN4CCN(CCN2CC4)CC(=O)[O]3)N(C)C(=O)[C@H](Cc2ccccc2)NC1=O

1: 1 to 3.33 nM; 2: 1 to 3.33 nM

Attribution: patent US20250222146A1
